# System: Escherichia coli
# assay: Antibacterial activity against Escherichia coli ATCC 25922 assessed as growth inhibition at 1000 ug/mL after 24 hrs by agar well plate method
# Type: functional
# applied-conditions: ATCC 25922, 24 h, read-out: DIZ
observation-type: zone of inhibition at 1000 µg/mL (mm)
Just the number please, in mm, no unit attached.

Using Escherichia coli as the test system, report measured zone of inhibition at 1000 µg/mL of COc1ccc(C2CC(=NOC(=O)c3ccc(O)cc3)CC(c3ccc(OC)cc3)N2C)cc1 (centres undefined) .
4

Using Escherichia coli as the test system, report measured zone of inhibition at 1000 µg/mL of COc1ccc(C2CC(=NOC(=O)c3cc(O)cc(O)c3)CC(c3ccc(OC)cc3)N2C)cc1 (centres undefined) .
3

Using Escherichia coli as the test system, report measured zone of inhibition at 1000 µg/mL of COc1ccc(C2CC(=NOC(=O)c3ccc(Br)cc3)CC(c3ccc(OC)cc3)N2C)cc1 (centres undefined) .
10

Using Escherichia coli as the test system, report measured zone of inhibition at 1000 µg/mL of COc1ccc(C2CC(=NOC(=O)c3cc(O)c(O)c(O)c3)CC(c3ccc(OC)cc3)N2C)cc1 (centres undefined) .
6

Using Escherichia coli as the test system, report measured zone of inhibition at 1000 µg/mL of COc1ccc(C2CC(=NOC(=O)c3ccccc3O)CC(c3ccc(OC)cc3)N2C)cc1 (centres undefined) .
5

Using Escherichia coli as the test system, report measured zone of inhibition at 1000 µg/mL of COc1ccc(C2CC(=NOC(=O)c3cc([N+](=O)[O-])cc([N+](=O)[O-])c3)CC(c3ccc(OC)cc3)N2C)cc1 (centres undefined) .
9

Using Escherichia coli as the test system, report measured zone of inhibition at 1000 µg/mL of COc1ccc(C2CC(=NOC(=O)c3cccc(O)c3)CC(c3ccc(OC)cc3)N2C)cc1 (centres undefined) .
6

Using Escherichia coli as the test system, report measured zone of inhibition at 1000 µg/mL of COc1ccc(C2CC(=NO)CC(c3ccc(OC)cc3)N2C)cc1 (centres undefined) .
1

Using Escherichia coli as the test system, report measured zone of inhibition at 1000 µg/mL of COc1ccc(C2CC(=NOC(=O)c3ccc(F)cc3)CC(c3ccc(OC)cc3)N2C)cc1 (centres undefined) .
17

Data provenance: ChEMBL document CHEMBL2429721
